- protocol: qHTS for Inhibitors of the Functional Ribonucleoprotein Complex (vRNP) of Lassa (LASV) Arenavirus: Viability assay - alamar blue signal for LASV Primary Screen (AID 1347083); note: nearly all actives have a fitted effect of over 80% in size
- experimental.parameters: cell viability, alamar blue fluorescence (LASV minigenome counter-screen); series mostly up to 57.5 µM
Records with an inconclusive call do not appear. The source made the active and inactive calls. Calls come from the whole dose curve; tested in HEK293 reporter line.
measure: outcome

Worked examples follow.
CCCN(CCC)C1CCc2cccc(O)c2C1 (stereo unspecified); inactive
NC(N)=Nc1ccc2[nH]c3c(c2c1)C[C@@]1(O)[C@H]2Cc4ccc(O)c5c4[C@@]1(CCN2CC1CC1)[C@H]3O5; inactive
NC(=O)COc1c(F)cc(SCCNS(=O)(=O)c2ccccc2)cc1F; inactive
Oc1ccc2c3c1O[C@H]1c4oc5ccccc5c4C[C@@]4(O)C(C2)N(CC2CC2)CCC314 (stereo partly specified); inactive
O=C(O)c1cc[c]([Hg][Cl])cc1; inactive

Entry Cc1[nH]c2ccc(O)cc2c1CCN needs its outcome filled in; supply it.
inactive

Provide measured outcome value, entry: O=C1CC[C@@]2(O)C3Cc4ccc(O)c5c4C2(CCN3CC2CC2)[C@H]1O5 (stereo partly specified)
inactive

Output measured outcome for this item: N[C@@]1(C(=O)O)CC[C@@H](C(=O)O)C1
inactive

Write down outcome measured for item NNC(N)=O
inactive

Name the recorded outcome of the molecule listed here: C[C@]12C=CC(=O)C=C1CC[C@@H]1[C@@H]2CC[C@]2(C)OC(=O)CC[C@@H]12
inactive

Please list outcome recorded for the molecule C[Se]C[C@H](N)C(=O)O
inactive

For C=CCN1CC[C@]23c4c5ccc(O)c4O[C@@H]2/C(=N/N=C2\CC[C@@]4(O)C6Cc7ccc(O)c8c7[C@@]4(CCN6CC=C)[C@@H]2O8)CC[C@@]3(O)C1C5 , write its outcome.
inactive
